Test system: TK-10 renal
Test: NCI-60 one-dose screen, 48 h (100 = growth as untreated, 0 = no growth, -100 = all killed)
Conditions: 10 µM unless noted
About 83,000 compounds went through this panel and 20% of them were active in at least one assay; those are over-represented in the sample as a whole.
measuredParameter: growth (%)
# unit: % | format: bare number

Need growth of Cc1cc(=O)oc2cc(OCCn3c(C)nn(-c4ccc(Cl)cc4)c3=O)ccc12 , thanks.
59.6

Tell me the measured growth of COCCCNS(=O)(=O)c1ncnc2nc[nH]c12 , please.
140

Give the measured growth of COc1cccc(-c2nc(-c3ccc(N)cc3)co2)c1 .
109

What growth value was documented for this compound, O=C(CN1CCN(c2ccc(Cl)cc2)CC1)N1CCN(c2nnc(-c3ccccc3)c(-c3ccccc3)n2)CC1 ?
68.8

State the recorded growth for this entry: CC(=O)N1N=C(c2ccc3c(c2)OCO3)CC1c1c(C)nn(-c2ccccc2)c1N(C)Cc1ccccc1 (stereo unspecified)
80.9

# query: growth of entry CC(NNC(=S)N1CCCCCC1)c1ccc2ccccc2n1 (stereo unspecified)
41.9

Look up growth for this compound: COc1cccc(/C=N/Nc2nc3ccccc3s2)c1OC
64.8

Please report the recorded growth for O=C(CN1CCN(c2ccc(Cl)cc2)CC1)N1CCN(c2nnc(-c3ccc(Cl)cc3)c(-c3ccc(Cl)cc3)n2)CC1 .
102

Looking for the measured growth of c1ccc2nc(N/N=C3\CCCCC3C3CCCCC3)ccc2c1 (stereo unspecified) , can you help?
72.8

# input compound: Oc1ccc(/C=N/Nc2nc3ccccc3s2)c(O)c1 ; wanted: its growth
22.9

For the compound shown here, O=C1Nc2ccc(C(=O)O)c(O)c2C1=O , give the reported growth.
107

----------
Tested on: SNB-75 CNS
Assay: NCI-60 one-dose screen, 48 h
Conditions: 10 µM unless noted
About 83,000 compounds went through this panel and 20% of them were active in at least one assay; those are over-represented in the sample as a whole. Activity calls are given as the source filed them. Rule for the calls: active = growth percent below 10; inactive = the rest.
Write down the outcome that applies. Available outcomes: t (active), f (inactive)

Status in this test for CSc1nc(Nc2ccc(S(=O)(=O)Nc3ccon3)cc2)c(C#N)c(-c2ccc(Cl)cc2)n1 ?
f

I would be grateful if you could indicate the recorded call for CC(C)CNc1nc(N=[N+]=[N-])nc(NCC(C)C)n1 .
f

Field: outcome | Entry: CCOc1nc(-c2ccco2)n2nc(-c3ccco3)cc2n1
f

Hey, what did the test say about CC(=O)Nc1ccc(C(=O)COc2ccc(/C=C3\CCc4ccccc4C3=O)cc2)cc1 ?
f

Query: recorded result category for CN(C)c1ncnc2c1ncn2C1CCCCO1 (configuration not stated) in this test
f

Each compound tested received a call. Report the one for COc1ccc(NC(=O)c2ccc(-c3ccccc3)cc2)c(C(N)=O)c1 .
f

For this compound, state the assay outcome: CCN(CC)c1ccc(/C=C/C(=O)c2cccc(NS(C)(=O)=O)c2)cc1
f

Which result was noted for this compound in the test: CC(=O)N1N=C(c2ccc(C(F)(F)F)cc2)CC1c1ccc2c(c1)OCO2 (configuration not stated)
f

Dear colleague, could you share the recorded outcome for CNc1nc(NC2CCCC2)nc(Sc2ccc(OC)cc2)n1 when you have a moment?
f

Any idea what this test logged for c1ccc2nc(N/N=C3\CCCCC3C3CCCCC3)ccc2c1 (configuration not stated) ?
f

Outcome? COc1cc(/C=C\C(C)=N\Nc2ccccc2)ccc1O
f

For N#CSCC1CC(O)(c2ccccc2)C(c2ccccc2)C(c2ccc(Cl)cc2)O1 (configuration not stated) , which call appears in the assay record?
f

For this compound, state the assay outcome: Cc1[nH]cnc1/C=C1\SC(N2CCCCC2)=NC1=O
f

Outcome logged for Cn1ccnc1C(=O)/C=C/c1ccc(C(=O)Nc2nc3ccccc3[nH]2)cc1 in this assay:
t

Recorded call for O=c1[nH]c(SCc2ccccc2)nc2nc(Nc3ccc(NC(=S)Nc4ccccc4)cc3)nc(-c3ccc(O)cc3O)c12 ?
f

Just curious, what result did COc1ccc(C2=NN(C=O)C(c3cccc(Nc4ccnc5cc(Cl)ccc45)c3)C2)cc1 (configuration not stated) get here?
t

I would be grateful if you could indicate the recorded call for COc1ccc2ncccc2c1Cc1c(OC)ccc2ncccc12 .
f

Please let me know the test result on file for COc1cc(/C=C/C(=O)C(C(=O)/C=C/c2ccc(OC(=O)CCNc3nnc(C)s3)c(OC)c2)C(=O)CCNc2nnc(C)s2)ccc1OC(=O)CCNc1nnc(C)s1 .
t

What classification did CN(C)c1ccc(-c2nc3ncc(Br)cc3o2)cc1 end up with in this test?
f

In this assay, the call recorded for COc1ccc2c3c(ccc2c1)C(=O)/C(=C\O)CC3 was what?
f

Any idea what this test logged for CCCCN1c2nc3ccccc3cc2Sc2cc3ccccc3nc21 ?
f

# outcome recorded in this test, key = Cc1n(Cc2ccc3ccccc3c2)c2ccccc2[n+]1Cc1ccc2ccccc2c1
t

----------
System: PC-3 prostate
Assay: NCI-60 one-dose screen, 48 h (100 = growth as untreated, 0 = no growth, -100 = all killed)
Details: 10 µM unless noted
About 83,000 compounds went through this panel and 20% of them were active in at least one assay; those are over-represented in the sample as a whole.
Assignment: determine reported growth for the given molecules.
Entry rule: numbers only, all in %.

Item under review: COc1cc(/C=N/NC(=O)c2ccc(C(F)(F)F)nc2Nc2cc(Cl)ccc2C)cc(OC)c1OC . Reported growth?
66.8

Suppose we examine the molecule COc1ccc2c(c1)c(CC(=O)[Se]C)c(C)n2C(=O)c1ccc(Cl)cc1 ; what growth value has been reported?
24.2

If you can, please state the reported growth value of COc1cc(/C=C2\CN(C)CC3=C2Nc2nc(SC)[nH]c(=O)c2C3c2cc(OC)c(OC)c(OC)c2)cc(OC)c1OC (stereo not given) .
68

Which growth is listed for COc1cccc(-c2nc3cc(NC(=O)c4ccc(Cl)c(C#N)c4)ccc3o2)c1 ?
14.4

Look at this molecule and give its reported growth. COc1ccc2cc(-c3nc4ccccc4[nH]3)c(=O)oc2c1
87.5

Request the reported growth associated with CC(C)Sc1nc(Cl)c(C#N)c(-c2ccc(F)cc2)n1
106

# growth lookup, item COC(=O)Nc1ccc2ccc3c(NC(=O)OC)ccc4ccc1c2c43 (tested in a mixture with another compound)
48.4

Report growth for CNCCCn1c2c(c3ccc(F)cc3c1=O)C(=O)c1cc(OC)cnc1-2 please.
6.67

Reported growth for CCCCCCCCN(CCO)CCCCCCCC : what is it?
99.3

Suppose we examine the molecule COc1ccc(CNC(=O)c2c(C)n([O-])c3cc(F)c(F)cc3[n+]2=O)cc1 ; what growth value has been reported?
94

----------
Tested on: MCF7 breast
Assay: NCI-60 one-dose screen, 48 h (100 = growth as untreated, 0 = no growth, -100 = all killed)
Conditions: 10 µM unless noted
Procedure: Growth inhibition of the MCF7 human tumor cell line is measured as a screen for anti-cancer activity. Cells are grown in 96 well plates and exposed to the test compound for 48 hours. Compounds are tested at a single concentration, which is 10^-5 M for most compounds. The reported endpoint is percent growth (GI% or GIPRCNT), where numbers from 0 - 100% represent growth inhibition, and numbers from -100% - 0 represent cell death. For example, a value of 40 represents 60% growth inhibition. […]
About 83,000 compounds went through this panel and 20% of them were active in at least one assay; those are over-represented in the sample as a whole.
measuredParameter: growth (%)
Expressed in %, but write only the number.

What does the data say about its growth? Entry: CCN(CC)c1ccc(/C=C/C(=O)c2cccc(NS(C)(=O)=O)c2)cc1
22.8

Quick one: growth for CCSc1nc(-c2cccs2)n2nc(-c3ccco3)cc2n1 ?
32.9

# get_value(readout='growth', item= N#CC1c2ccccc2C=CN1C(=O)N(c1ccccc1)c1ccccc1 (stereo not given) )
49.9

Consider the compound shown here: C=C(CN1CCc2c([nH]c3ccccc23)C1)c1ccc(C(=O)Nc2ccon2)cc1 What is its recorded growth?
87.7

Entry Cc1ncc(C(=O)Nc2ccc(CN3CCN(C)CC3)c(C(F)(F)F)c2)cc1C#Cc1cncc2ncccc12 : reported growth = ?
71.9

What does the record list as growth for CNNc1ncnc2c1cnn2-c1ccc(S(N)(=O)=O)cc1 ?
104

Give its growth value. Item: Fc1ccc(-c2nn3c(-c4cc(C(F)(F)F)cc(C(F)(F)F)c4)nnc3s2)cc1
68.7

Need growth of N#Cc1c(NC(=O)c2ccco2)[n+]([O-])c2cc(Cl)c(Cl)cc2[n+]1[O-] , thanks.
87.8

Tell me the measured growth of COc1cc(/C=C2\CN(C)CC3=C2Nc2nc(SC)[nH]c(=O)c2C3c2cc(OC)c(OC)c(OC)c2)cc(OC)c1OC (stereo not given) , please.
33.5

Would you mind telling me what growth value was observed for COc1ccc(CNC(=O)c2c(C)n([O-])c3cc(F)c(F)cc3[n+]2=O)cc1 ?
55.9

Item under review: CN(C)CCC(=O)Nc1ccc(-n2cc(-c3cccc(NC(=S)Nc4cccc(-c5cn(-c6ccc(NC(=O)CCN(C)C)cc6)nn5)c4)c3)nn2)cc1 . Reported growth?
5.07

What value of growth has been recorded for this entry: CN(C)CCCNc1nn2c(=O)c3ccccc3nc2c2ccccc12
26.7

I am curious: what growth value has been reported for CC(NC(=O)Oc1cccc2ccccc12)c1ccccc1 (stereo not given) ?
87.8

Need growth of O=[N+]([O-])c1ccc2[nH]cc(-c3c4ccccc4cc4[nH]c5ccc([N+](=O)[O-])cc5c34)c2c1 , thanks.
8.11

What measured growth goes with CCN(CC)c1ccc(N=C2C=CC(=O)C=C2NC(C)=O)cc1 ?
82.6

Item O=C1C=CC(=O)N1c1ccccc1N1C(=O)C=CC1=O has what recorded growth?
97.1

Can you share its growth? I mean this compound: CC12CCC3C(=CCc4cc(O)ccc43)C1CCC2=O (stereo not given)
120

May I ask what growth has been recorded for CC(=O)O[C@H]1CC[C@@]2(C)C(=CC[C@@H]3[C@@H]2CC[C@]2(C)C(c4cccnc4)=CC[C@@H]32)C1 ?
46

Field request: growth | item: OC(c1cc(-c2cccc(Cl)c2)nc2ccccc12)C1CCCCN1 (stereo not given)
-86.9

// query growth value for entry Cc1sc2nc(N3CCCCC3)[nH]c(=O)c2c1C
96.1

The reported measurements were obtained from PubChem BioAssay (NCI).
